From: patent US6072035

Study System: human IgE; monoclonal antibody SE44 (human) (UniProt P01854)
Experiment: BIAcore, antibody captured by anti-human IgG, IgE SE44 as analyte
Kindly state koff for each of the entries shown.
Numbers only, in s⁻¹.

reshaped human C21 antibody C21-H1/L1 (antibody, V domains shown) VH: QVQLVQSGAEVKKPGASVKVSCKASGYTFSMYWLEWVKQRPGHGLEWVGEISPGTFTTNYNEKFKAKATFTADTSTNTAYMELSSLTSEDTAVYYCARFSHFSG VL: DILLTQSPGTLSLSPGERATLSCRASQSIGTNIHWYQQKPGQAPRLLIKYASESISGIPSRFSGSGSGTDFTLTISRLEPEDFAMYY :: 3e-05
reshaped human C21 antibody C21-H3/L1 (antibody, V domains shown) VH: QVQLVQSGAEVKKPGASVKVSCKASGYTFSMYWLEWVRQAPGHGLEWVGEISPGTFTTNYNEKFKARATFTADTSTNTAYMELSSLRSEDTAVYYCARFSHFSG VL: DILLTQSPGTLSLSPGERATLSCRASQSIGTNIHWYQQKPGQAPRLLIKYASESISGIPSRFSGSGSGTDFTLTISRLEPEDFAMYY :: 1.9e-05
reshaped human C21 antibody C21-H1/L3 (antibody, V domains shown) VH: QVQLVQSGAEVKKPGASVKVSCKASGYTFSMYWLEWVKQRPGHGLEWVGEISPGTFTTNYNEKFKAKATFTADTSTNTAYMELSSLTSEDTAVYYCARFSHFSG VL: EIVLTQSPGTLSLSPGERATLSCRASQSIGTNIHWYQQKPGQAPRLLIKYASESISGIPSRFSGSGSGTDFTLTISRLEPEDFAMYYCQQSDSWPTTFGQGTKVEIK :: 6.2e-05

Need koff for each of these binders.
1. reshaped human C21 antibody C21-Hay3/L2 (antibody, V domains shown) VH: QVQLVQSGAEVKKPGASVKVSCKASGYTFSMYWLEWVRQAPGQRLEWMGEISPGTFTTNYNEKFKARATFTADTSASTAYMELSSLRSEDTAVYYCARFSHFSGSNYDYFDYWGQGTLVTVSS VL: DILLTQSPGTLSLSPGERATLSCRASQSIGTNIHWYQQKPGQAPRLLIKYASESISGIPDRFSGSGSGTDFTLTISRLEPEDFAMYYCQQSDSWPTTFGQGTKVEIK
2. reshaped human C21 antibody C21-H3/L3 (antibody, V domains shown) VH: QVQLVQSGAEVKKPGASVKVSCKASGYTFSMYWLEWVRQAPGHGLEWVGEISPGTFTTNYNEKFKARATFTADTSTNTAYMELSSLRSEDTAVYYCARFSHFSG VL: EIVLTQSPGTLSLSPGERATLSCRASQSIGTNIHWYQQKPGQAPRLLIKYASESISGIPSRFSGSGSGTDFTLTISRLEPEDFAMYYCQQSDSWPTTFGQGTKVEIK
3. reshaped human C21 antibody C21-Hay3/L3 (antibody, V domains shown) VH: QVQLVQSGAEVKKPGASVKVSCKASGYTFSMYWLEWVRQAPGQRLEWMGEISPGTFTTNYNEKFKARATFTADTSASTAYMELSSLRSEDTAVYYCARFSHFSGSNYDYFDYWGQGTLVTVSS VL: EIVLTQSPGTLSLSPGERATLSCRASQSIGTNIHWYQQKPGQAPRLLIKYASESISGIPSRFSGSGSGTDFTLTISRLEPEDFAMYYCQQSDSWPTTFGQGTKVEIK
4. reshaped human C21 antibody C21-H3/L2 (antibody, V domains shown) VH: QVQLVQSGAEVKKPGASVKVSCKASGYTFSMYWLEWVRQAPGHGLEWVGEISPGTFTTNYNEKFKARATFTADTSTNTAYMELSSLRSEDTAVYYCARFSHFSG VL: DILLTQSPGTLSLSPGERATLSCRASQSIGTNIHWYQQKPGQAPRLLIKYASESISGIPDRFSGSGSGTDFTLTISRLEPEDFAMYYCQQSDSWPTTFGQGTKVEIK
5. reshaped human C21 antibody C21-H1/L2 (antibody, V domains shown) VH: QVQLVQSGAEVKKPGASVKVSCKASGYTFSMYWLEWVKQRPGHGLEWVGEISPGTFTTNYNEKFKAKATFTADTSTNTAYMELSSLTSEDTAVYYCARFSHFSG VL: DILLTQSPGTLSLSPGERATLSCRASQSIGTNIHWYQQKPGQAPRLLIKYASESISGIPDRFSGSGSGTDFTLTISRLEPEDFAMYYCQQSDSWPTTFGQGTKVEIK
6. reshaped human C21 antibody C21-Hay3/L1 (antibody, V domains shown) VH: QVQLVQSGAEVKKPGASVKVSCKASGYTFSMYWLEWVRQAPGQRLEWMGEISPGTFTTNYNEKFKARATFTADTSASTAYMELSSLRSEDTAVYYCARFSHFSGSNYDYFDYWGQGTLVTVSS VL: DILLTQSPGTLSLSPGERATLSCRASQSIGTNIHWYQQKPGQAPRLLIKYASESISGIPSRFSGSGSGTDFTLTISRLEPEDFAMYY

3.1e-05
3.5e-05
0.000159
4.4e-05
5.7e-05
4.1e-05
